System: 3D7
test-details: qHTS profiling for inhibitors of Plasmodium falciparum proliferation (AID 504749); further: nearly all actives have a fitted effect of over 60% in size; further: potency means the concentration at half of the fitted maximal effect
settings: P. falciparum in erythrocytes, SYBR Green DNA, 72 h; series mostly up to 28.7 µM
Results filed as inconclusive are left out. Activity calls are given as the source filed them. The call rests on the fitted dose curve; in most records, active means well fitted inhibition curve with a large enough effect; inconclusive means small, poorly fitted or top-dose-only effect; inactive means flat fitted curve, though single readings scatter. Peptide text beside a SMILES is read from it.
quantity-name: Potency

- CC(C)(C)C(=O)OCOC(=O)[C@@H]1N2C(=O)[C@@H](N=CN3CCCCCC3)[C@H]2SC1(C)C: inactive
- CCCCCCC(O)C/C=C/CCCCCCCC(=O)O (stereo unspecified): inactive
- Cc1c(C)c2c(c(C)c1O)CC[C@@](C)(CCC[C@H](C)CCC[C@H](C)CCCC(C)C)O2: inactive
- Nc1ncnc2c1ncn2[C@@H]1O[C@H](COP(=O)(O)OP(=O)(O)OP(=O)(O)O)[C@@H](O)[C@H]1O: inactive
- C[C@]12O[C@H](C[C@]1(O)CO)n1c3ccccc3c3c4c(c5c6ccccc6n2c5c31)CNC4=O: 0.224 µM (active)
- O=C1C(=O)c2ncccc2-c2cccnc21: 0.891 µM (active)
- COc1cc(-c2ccc(-[n+]3nc(-c4ccccc4)nn3-c3ccc([N+](=O)[O-])cc3)c(OC)c2)ccc1-[n+]1nc(-c2ccccc2)nn1-c1ccc([N+](=O)[O-])cc1: 11.2 µM (active)
- CC[C@@]1(O)C(=O)OCc2c1cc1n(c2=O)Cc2cc3c([N+](=O)[O-])cccc3nc2-1: 5.01 µM (active)
- C=C1C(=CC=C2CCC[C@@]3(C)[C@@H]2CC[C@H]3[C@H](C)CCCC(C)C)C[C@@H](O)C[C@@H]1O: 11.2 µM (active)
- CC(C(=O)O)c1ccc(N2Cc3ccccc3C2=O)cc1 (stereo unspecified): inactive
- CCCC(=O)O[C@]1(C(=O)CCl)[C@H](C)C[C@@H]2[C@H]3CCC4=CC(=O)C=C[C@]4(C)[C@@]3(F)C(=O)C[C@@]21C: 2.51 µM (active)
- O=S(=O)(O)c1cc(O)c2c(N=Nc3ccc(Nc4ccccc4)c4c(S(=O)(=O)O)cccc34)cc(S(=O)(=O)O)cc2c1: inactive
- CCNC(=O)[C@@H]1CCCN1C(=O)[C@H](CCCN=C(N)N)NC(=O)[C@H](CC(C)C)NC(=O)[C@@H](Cc1c[nH]c2ccccc12)NC(=O)[C@H](Cc1ccc(O)cc1)NC(=O)[C@H](CO)NC(=O)[C@H](Cc1c[nH]c2ccccc12)NC(=O)[C@H](Cc1cnc[nH]1)NC(=O)[C@@H]1CCC(=O)N1: 7.08 µM (active)
- CCC(=O)NCCC1CCc2ccc3c(c21)CCO3 (stereo unspecified): inactive
- CC1(C)C(C=C(Cl)Cl)C1C(=O)OCc1cccc(Oc2ccccc2)c1 (stereo unspecified): inactive
- CC(=O)N[C@@H](CC(=O)O)C(=O)N[C@@H](CCC(=O)O)C(=O)O (Ac-Asp-Glu-OH): inactive

---

measurement-target: Guanidinoacetate N-methyltransferase (Homo sapiens) (UniProt Q14353)
test-details: Confirmatory Screen for Target Class Profiling of Small Molecule Inhibitors of Methyltransferases (AID 1745852); further: on the % scale 0 is the no-effect control and ±100 the full control effect
settings: MTase-Glo luminescence, SAH detection, recombinant enzyme; at 57.3 µM (top of the series) unless noted
quantity-name: activity change, negative = inhibition (%)

* CC1(C)O[C@@]2(C)CC[C@@H]1C[C@@H]2OC1OC(CO)C(O)C(O)C1O (stereo partly drawn) | 2.82
* CC(=O)NCCCCn1c2c(c3ccccc31)C(=O)NCC2 | -8.34
* CC1=CC(=O)CC(C)(C)C1(O)CCC(C)O (stereo not drawn) | 2.94
* Cc1[nH]cnc1C1CCN(c2nc3cccc4c3n2CCC4=O)CC1 | 0.0241
* O=C(O)CCc1cccc(O[C@@H]2O[C@H](CO)[C@@H](O)[C@H](O)[C@H]2O)c1O | 0.429
* CC(C)N(C[C@H]1O[C@@H](n2cnc3c(N)ncnc32)[C@H](O)[C@@H]1O)C1CC(CCc2nc3ccc(C(C)(C)C)cc3[nH]2)C1 (stereo partly drawn) | -3.18
* C=C(C)[C@H]1C[C@@H](O)C(=C)CC[C@@H](O)C(=C)[C@@H](O)C1 | 0
* Cc1ccc2c(c1)C=Cc1cc(C)ccc1C2c1cn(Cc2ccc(C(=O)Nc3nn[nH]n3)o2)c(=O)[nH]c1=S | -0.0663
* CC1CC(O)C2(C)C(C(=O)O)=CCCC2C1(C)CCc1ccoc1 (stereo not drawn) | 2.37
* CN1CCC(c2c[nH]c3ccc(NC(=O)c4ccc(F)cc4)cc23)CC1 | -10.4
* C=C[C@](C)(CC/C=C(\C)C(=O)O)O[C@@H]1OC[C@H](O)[C@H](O)[C@H]1O | -1.98
* COc1cc(N2CCC(O)CC2)ccc1Nc1cc(Nc2ccccc2S(=O)(=O)C(C)C)c2cc[nH]c2n1 | 0
* CC1CC(=O)C2=C(O1)OC1(C)CCC3C(C)(C)C=CC(=O)C3(C)C1C2 (stereo not drawn) | -4.08
